# Measurement Target: T1, Mutant Human HTT Exon 1 48Q (GST) (human)
# T1 construct: recombinant His- and GST-tagged fusion; also called HTT Exon 1 Q48; 48Q HTT Exon-1
# T1 sequence (chain, as listed by the source mutant limits assumed): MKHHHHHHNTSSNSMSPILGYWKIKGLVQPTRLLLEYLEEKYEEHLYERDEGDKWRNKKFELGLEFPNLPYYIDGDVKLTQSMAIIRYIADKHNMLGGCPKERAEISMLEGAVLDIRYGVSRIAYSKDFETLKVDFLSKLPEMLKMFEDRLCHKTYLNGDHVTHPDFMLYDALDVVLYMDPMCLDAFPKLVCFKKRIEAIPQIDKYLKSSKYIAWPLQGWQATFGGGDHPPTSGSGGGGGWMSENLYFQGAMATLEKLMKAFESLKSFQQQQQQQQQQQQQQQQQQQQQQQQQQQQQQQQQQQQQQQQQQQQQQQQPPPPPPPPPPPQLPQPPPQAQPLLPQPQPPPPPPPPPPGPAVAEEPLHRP
# Assay Overview: HTT sandwich ELISA
Assign pEC50 to each entry below.
# reply with the number alone; pEC50 is -log10 of concentration in mol/L

Ask: Answer with the recorded pEC50 for the binder listed here: ATL_0006374 (antibody, V domains shown, also called ATL_6374; ATL 6374) VH: EVQLVESGGGLVKPGGSLRLSCAASGFTFNKAWMSWVRQAPGKGLEWVGRIKSGIDAGTTDYAAPVKGRFTISRDDSKNTLYLQMNSLKTEDTAVYWCVPPPYYYYYGLDVWGQGTTVTVSS VL: QSALTQPRSVSGSPGQSVTISCTGTSSDVGSYNLVSWYQQHPGKAPKLMIYEVNKRPSGVPDRFSGSKSGATASLTISGLQAEDEADYYCVSYGGTENVFGTGTKVTVL
Result: 7.51

Ask: Answer with the recorded pEC50 for the binder listed here: ATL_0006377 (antibody, V domains shown, also called ATL_6377) VH: EVQLVESGGGLVKPGGSLRLSCAASGFTFNKAWMSWVRQAPGKGLEWVGRIKSGIDAGTTDYAAPVKGRFTISRDDSKNTLYLQMNSLKTEDTAVYYCVPSPYYYYYGLDVWGQGTTVTVSS VL: QSALTQPRSVSGSPGQSVTISCTGTSSDVGSYNLVSWYQQHPGKAPKLMIYEVNKRPSGVPDRFSGSKSGATASLTISGLQAEDEADYYCVSYAGTANVFGTGTKVTVL
Result: 7.62

Ask: Answer with the recorded pEC50 for the binder listed here: ATL_0006376 (antibody, V domains shown, also called ATL_6376) VH: EVQLVESGGGLVKPGGSLRLSCAASGFTFNKAWMSWVRQAPGKGLEWVGRIKSGIDAGTTDYAAPVKGRFTISRDDSKNTLYLQMNSLKTEDTAVYYCVPPPFYYYYGLDVWGQGTTVTVSS VL: QSALTQPRSVSGSPGQSVTISCTGTSSDVGSYNLVSWYQQHPGKAPKLMIYEVNKRPSGVPDRFSGSKSGATASLTISGLQAEDEADYYCVSYGGTENVFGTGTKVTVL
Result: 7.94

Ask: Answer with the recorded pEC50 for the binder listed here: ATL_0006378 (antibody, V domains shown, also called ATL_6378; ATL 6378) VH: EVQLVESGGGLVKPGGSLRLSCAASGFTFNKAWMSWVRQAPGKGLEWVGRIKSGIDAGTTDYAAPVKGRFTISRDDSKNTLYLQMNSLKTEDTAVYYCVPSPYYYYYGLDVWGQGTTVTVSS VL: QSALTQPRSVSGSPGQSVTISCTGTSSDVGSYNLVSWYQQHPGKAPKLMIYEVNKRPSGVPDRFSGSKSGATASLTISGLQAEDEADYYCVSYGGTENVFGTGTKVTVL
Result: 7.41

Ask: Answer with the recorded pEC50 for the binder listed here: ATL_0006375 (antibody, V domains shown, also called ATL_6375) VH: EVQLVESGGGLVKPGGSLRLSCAASGFTFNKAWMSWVRQAPGKGLEWVGRIKSGIDAGTTDYAAPVKGRFTISRDDSKNTLYLQMNSLKTEDTAVYYCVPPPYYYYYGLDVWGQGTTVTVSS VL: QSALTQPRSVSGSPGQSVTISCTGTSSDVGSYNLVSWYQQHPGKAPKLMIYEVNKRPSGVPDRFSGSKSGATASLTISGLQAEDEADYYCVSYGGTENVFGTGTKVTVL
Result: 7.70

Provenance of the data: patent US20260209320A1
